Source: patent US10221197B2

biological target: PI3Kβ (Homo sapiens (Human)); test: TR-FRET enzymatic assay of PI3K isoforms (PI3Kβ); settings: TR-FRET, 2×Km ATP, 2 μM PIP2, incubated for 30 minutes at 25° C.; read-out: β IC50
ENDPOINT: IC50 (nM)

Please review the entries below; each comes with its answer.
C[C@H](Nc1ncnc(N)c1C#N)c1nc2c(F)ccc(F)c2c(=O)n1-c1cccc(NC(=O)NCCCO)c1
38
CCNC(=O)Nc1ccc(C)c(-n2c([C@H](C)Nc3ncnc(N)c3C#N)nc3cccc(Cl)c3c2=O)c1 (atropisomer, axis not shown) [Compound 60]
210
CCCNC(=O)Nc1cccc(-n2c([C@H](C)Nc3ncnc(N)c3C#N)nc3cccc(Cl)c3c2=O)c1
8

a: C[C@H](Nc1nc(N)nc(N)c1Cl)c1nc2c(Cl)ccc(Cl)c2c(=O)n1-c1cccc(C(N)=O)c1
b: C[C@H](Nc1ncnc(N)c1C#N)c1nc2cccc(Cl)c2c(=O)n1-c1cccc(NC(=O)NCC(C)(C)CO)c1
c: C[C@H](Nc1ncnc(N)c1C#N)c1nc2c(F)cccc2c(=O)n1-c1cccc(NC(=O)NCCCO)c1
d: CCNC(=O)Nc1cccc(-n2c([C@H](C)Nc3ncnc(N)c3C#N)nc3cccc(C(F)(F)F)c3c2=O)c1
Order these by IC50, descending, and give the full ranking. Rank the items, then write their labels in that order.
c, d, a, b

###

biological target: PI3Kβ (Homo sapiens (Human), UniProt P42338); assay: TR-FRET enzymatic assay of PI3K isoforms (PI3Kβ); details: TR-FRET, 2×Km ATP, 2 μM PIP2, incubated for 30 minutes at 25° C.; read-out: β IC50
Sequence (P42338 whole entry, canonical isoform): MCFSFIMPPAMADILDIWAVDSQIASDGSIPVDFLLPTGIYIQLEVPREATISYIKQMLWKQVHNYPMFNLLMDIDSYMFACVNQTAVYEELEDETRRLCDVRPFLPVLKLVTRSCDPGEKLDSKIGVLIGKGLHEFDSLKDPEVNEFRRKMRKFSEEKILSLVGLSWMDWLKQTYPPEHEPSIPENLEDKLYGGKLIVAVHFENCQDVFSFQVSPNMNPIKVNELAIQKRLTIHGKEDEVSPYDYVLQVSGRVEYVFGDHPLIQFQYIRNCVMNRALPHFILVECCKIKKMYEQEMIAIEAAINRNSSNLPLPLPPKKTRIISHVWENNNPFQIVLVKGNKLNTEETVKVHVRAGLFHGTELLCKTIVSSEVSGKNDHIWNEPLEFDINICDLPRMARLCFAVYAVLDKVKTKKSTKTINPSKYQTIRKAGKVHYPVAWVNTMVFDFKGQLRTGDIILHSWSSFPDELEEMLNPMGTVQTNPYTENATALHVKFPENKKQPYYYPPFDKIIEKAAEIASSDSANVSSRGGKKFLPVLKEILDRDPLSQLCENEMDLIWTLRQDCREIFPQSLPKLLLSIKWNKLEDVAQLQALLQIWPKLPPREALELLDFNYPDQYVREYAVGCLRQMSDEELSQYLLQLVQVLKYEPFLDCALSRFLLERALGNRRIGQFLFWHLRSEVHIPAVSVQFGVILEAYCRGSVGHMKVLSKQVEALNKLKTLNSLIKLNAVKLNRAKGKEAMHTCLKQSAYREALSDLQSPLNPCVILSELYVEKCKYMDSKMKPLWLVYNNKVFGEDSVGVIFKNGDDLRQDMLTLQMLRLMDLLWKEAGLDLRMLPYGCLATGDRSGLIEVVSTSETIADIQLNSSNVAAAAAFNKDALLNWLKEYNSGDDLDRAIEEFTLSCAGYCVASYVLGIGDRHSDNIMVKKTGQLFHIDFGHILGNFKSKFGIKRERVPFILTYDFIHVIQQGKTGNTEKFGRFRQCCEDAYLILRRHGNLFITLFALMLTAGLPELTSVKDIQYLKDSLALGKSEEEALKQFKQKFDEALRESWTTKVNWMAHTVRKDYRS
Sequence (P27986 whole entry partner, canonical isoform): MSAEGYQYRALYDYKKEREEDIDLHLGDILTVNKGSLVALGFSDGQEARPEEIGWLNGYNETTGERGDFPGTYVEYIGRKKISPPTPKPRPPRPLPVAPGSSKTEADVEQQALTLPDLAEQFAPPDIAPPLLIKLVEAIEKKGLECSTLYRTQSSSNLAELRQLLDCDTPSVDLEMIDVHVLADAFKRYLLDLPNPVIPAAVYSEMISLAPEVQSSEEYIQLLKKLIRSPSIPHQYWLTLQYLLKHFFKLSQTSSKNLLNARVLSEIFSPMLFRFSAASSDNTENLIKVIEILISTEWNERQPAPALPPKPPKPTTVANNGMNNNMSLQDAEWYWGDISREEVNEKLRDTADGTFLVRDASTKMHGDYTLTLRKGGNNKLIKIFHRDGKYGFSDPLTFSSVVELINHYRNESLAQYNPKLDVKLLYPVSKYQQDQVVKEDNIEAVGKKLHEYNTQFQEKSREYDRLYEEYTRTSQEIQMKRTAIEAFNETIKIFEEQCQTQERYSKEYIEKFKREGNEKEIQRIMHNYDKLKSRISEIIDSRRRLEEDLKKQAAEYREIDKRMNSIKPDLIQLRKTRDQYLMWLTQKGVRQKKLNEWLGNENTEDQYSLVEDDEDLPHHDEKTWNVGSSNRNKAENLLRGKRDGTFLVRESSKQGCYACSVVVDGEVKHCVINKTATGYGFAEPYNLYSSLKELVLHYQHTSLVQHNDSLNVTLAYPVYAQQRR
pIC50: −log10 of the molar value.
ENDPOINT: pIC50

Please review the entries below; each comes with its answer.
CCC[C@H](Nc1nc(N)nc(N)c1Cl)c1nc2cccc(Cl)c2c(=O)n1-c1cccc(C(N)=O)c1 [Compound 23]
7.92
C[C@H](Nc1ncnc2[nH]cnc12)c1nc2cccc(Cl)c2c(=O)n1-c1cccc(NC(=O)Nc2ccncc2Cl)c1 [Compound 112]
8.22

A: C[C@H](Nc1ncnc(N)c1C#N)c1nc2cccc(Cl)c2c(=O)n1-c1cccc(NC(=O)Nc2ccccc2OCC(=O)O)c1 [Compound 98]
B: CCNC(=O)Nc1cccc(-n2c([C@@H](Nc3ncnc(N)c3C#N)[C@@H](C)CC)nc3cccc(Cl)c3c2=O)c1 [Compound 42]
I would appreciate it if you could say which entry, A or B , has the lower pIC50 value. Give the label under which the chosen entry appears.
B
(B: 6.77, A: 7.24)

P: C[C@H](Nc1ncnc(N)c1C#N)c1nc2cccc(Cl)c2c(=O)n1-c1cccc(NC(=O)NCC(F)(F)F)c1 [Compound 76]
Q: CCNC(=O)Nc1cccc(-n2c([C@@H]3C[C@H](F)CN3c3ncnc(N)c3C#N)nc3cccc(Cl)c3c2=O)c1 [Compound 73]
Pick one: P or Q . Which has the bigger pIC50 number? Give the label under which the chosen entry appears.
P
(P: 8.30, Q: 7.42)

I: Cc1c(C(N)=O)cccc1-n1c([C@H](C)Nc2nc(N)nc(N)c2C#N)nc2cccc(Cl)c2c1=O (single isomer, unassigned) [Compound 6]
II: Cc1c(C(N)=O)cccc1-n1c([C@H](C)Nc2nc(N)nc(N)c2C#N)nc2cccc(Cl)c2c1=O (single isomer, unassigned) [Compound 5]
III: N#Cc1c(N)nc(N)nc1N[C@H](c1nc2cccc(Cl)c2c(=O)n1-c1cc(F)cc(C(N)=O)c1)C1CC1 [Compound 161]
Order these by pIC50, descending, and give the full ranking. Rank the items, then write their labels in that order.
III, I, II

1: CCNC(=O)Nc1cccc(-n2c([C@H](COCc3ccccc3)Nc3ncnc4[nH]cnc34)nc3cccc(Cl)c3c2=O)c1 [Compound 133]
2: C[C@H](Nc1ncnc(N)c1C#N)c1nc2cccc(Cl)c2c(=O)n1-c1cccc(NC(=O)NC2CCCCC2)c1 [Compound 122]
3: CCNC(=O)Nc1cccc(-n2c([C@H](C)Nc3ncnc(N)c3C#Cc3ccccn3)nc3cccc(Cl)c3c2=O)c1 [Compound 92]
Order these by pIC50, descending, and give the full ranking. Rank the items, then write their labels in that order.
2, 3, 1
